Origin of measurements: PubChem BioAssay (NCI)

# Tested on: SN12C renal
# run_description: NCI tumour cell line growth inhibition, 48 h
Hi there, I'd appreciate the recorded TGI for every entry that follows.

Hello, please tell me recorded TGI for this one: `COc1ccc(S(=O)(=O)N2CCNCC2)cc1OC`
> 100 µM

Supply TGI value. Item: `O=c1[nH]c2nc[nH]c2c(=O)n1C1CCCCC1`
> 100 µM

Look up and report measured TGI for this entry: `O=C(c1cc(Cc2n[nH]c(=O)c3ccccc23)ccc1F)N1CCN(C(=O)C2CC2)CC1`
> 100 µM

Return TGI (reported value) for this compound: `COc1ccc2nc3cc(Cl)ccc3c(N3CCN(c4ccnc(N5CCN(C)CC5)n4)CC3)c2c1`
8.37 µM

Dear colleague, please send me the reported TGI for `COc1ccc(/C=C/c2cc(OC)c(OCc3ccccc3)c(OC)c2)cc1` when you can.
> 100 µM

Please supply the value of reported TGI for the item CCOP(=O)(OCC)C(Cc1ccc(Cl)cc1)NS(=O)(=O)c1ccc(C)cc1 (stereo not given)
> 100 µM

Entry `C/C(=N\NC(=O)C(N)=O)c1c(O)cc(C)oc1=O` needs its TGI filled in; supply it.
> 100 µM

Indicate its recorded TGI; the compound in question is C=CCNC(=O)CN(CC(=O)OC)C1CCCCC1N(CC(=O)OC)CC(=O)OC (stereo not given)
> 100 µM

Given the compound `O=c1n(-c2ccccc2)c(=O)n2c(-c3ccccc3)c(-c3ccccc3)n12` , write its reported TGI.
> 100 µM

Identify TGI associated with the compound `C/C(=N\NC(=S)Nc1ccc([N+](=O)[O-])cc1)c1nc2ncccc2[nH]1`
56.6 µM
